Exercise: state measured Replicon Assay Value TD50 for each of the molecules provided.
- Test system: HCV replicon cells Huh 9B
- Format: cell-based
- test settings: concentration reducing total cell area by 50% relative to DMSO controls; 72 h
Answers are plain numbers, in µM.

Below, each entry is followed by its recorded Replicon Assay Value TD50 result.
>  <molecule>
CN(CCOCC1CC1)c1ncc(F)cc1C(=O)NC1N=C(c2c(Cl)cc(Cl)cc2Cl)c2ccccc2NC1=O (stereo not drawn) [Example 46]

>  <units of measure>
µM

>  <Replicon Assay Value TD50>
15.961

$$$$
>  <molecule>
CCOCCOc1ccc(Cl)cc1C(=O)NC1N=C(c2c(Cl)cc(Cl)cc2Cl)c2ccccc2NC1=O (stereo not drawn) [Example 3]

>  <units of measure>
µM

>  <Replicon Assay Value TD50>
16.177

$$$$
>  <molecule>
COCCOc1ccc(F)cc1C(=O)NC1N=C(c2c(Cl)cc(Cl)cc2CN2CCOCC2)c2ccccc2NC1=O (stereo not drawn) [Example 50]

>  <units of measure>
µM

>  <Replicon Assay Value TD50>
11.74

$$$$

Need Replicon Assay Value TD50 for each of these molecules.
1. CCOc1cc(Cl)cc(Cl)c1C1=N[C@@H](NC(=O)c2cc(F)ccc2OCCOC)C(=O)Nc2ccccc21 [Example 70]
2. COCCOc1ccc(F)cc1C(=O)NC1N=C(c2c(Cl)cc(Cl)cc2OC)c2ccccc2NC1=O (stereo not drawn) [Example 53]
3. CCCCCOCCOc1ccc(Cl)cc1C(=O)NC1N=C(c2c(Cl)cc(Cl)cc2Cl)c2ccccc2NC1=O (stereo not drawn) [Example 7]
4. COCCOCCOc1ccc(Cl)cc1C(=O)NC1N=C(c2c(Cl)cc(Cl)cc2Cl)c2ccccc2NC1=O (stereo not drawn) [Example 5]
5. CCOCCOCCOc1ccc(Cl)cc1C(=O)NC1N=C(c2c(Cl)cc(Cl)cc2Cl)c2ccccc2NC1=O (stereo not drawn) [Example 8]

24.592
24.827
11.806
15.913
11.724
